- MEASUREMENT_PROTOCOL: Multi-component pharmacokinetic study of GQD, GQD-GC and single herb extracts in rats (plasma, LC/MS/MS)
- Assay type: in vivo, Sprague-Dawley rats
- EXPERIMENTAL_CONTEXT: male, Sprague-Dawley, rat; GQD group: rats, oral GQD extract 18.9 g/kg, plasma; read-out: T1/2 (converted)
half-life of 7 h or higher: T. Under 7 h: F.

>>> cat("COc1ccc2cc3[n+](cc2c1OC)CCc1cc2c(cc1-3)OCO2")
"T"
>>> cat("O=c1c(-c2ccc(O)cc2)coc2c([C@@H]3O[C@H](CO)[C@@H](O)[C@H](O)[C@H]3O)c(O)ccc12")
"F"
>>> cat("O=C(O)[C@H]1O[C@@H](Oc2cc(O)c3c(=O)cc(-c4ccccc4)oc3c2O)[C@H](O)[C@@H](O)[C@@H]1O [Compound 14, norwogonin 7-O-glucuronide]")
"F"
>>> cat("O=c1cc(-c2ccccc2)oc2cc(O)c(O)c(O)c12")
"T"
>>> cat("COc1c(O)cc(O)c2c(=O)cc(-c3ccccc3)oc12")
"F"
>>> cat("COc1ccc(-c2coc3cc(O[C@@H]4O[C@H](CO)[C@@H](O)[C@H](O)[C@H]4O)ccc3c2=O)cc1")
"F"

Please examine the following record next.
Does the reported half-life for COc1c(CC=C(C)C)c(O)cc2oc(=O)c(-c3ccc(O)cc3O)cc12 fall at or above the 7 h mark?
T

###

- MEASUREMENT_PROTOCOL: Multi-component pharmacokinetic study of GQD, GQD-GC and single herb extracts in rats (plasma, LC/MS/MS)
- Format: in vivo, Sprague-Dawley rats
- EXPERIMENTAL_CONTEXT: male, Sprague-Dawley, rat, plasma, po, 3.54 g/kg; Huang-Qin group: rats, oral 3.54 g/kg, plasma; read-out: AUClast
Each item that follows carries a reported AUC(0-t).
Answer in ng·h/mL, number only, no unit symbol.

>>> endpoint_result("O=C(O)[C@H]1O[C@@H](Oc2cc(O)c3c(=O)cc(-c4ccccc4)oc3c2O)[C@H](O)[C@@H](O)[C@@H]1O [Compound 14, norwogonin 7-O-glucuronide]")
11000

Here is the next item to consider.
Please supply the value of reported AUC(0-t) for the item O=C(O)[C@H]1O[C@@H](Oc2cc3oc(-c4ccccc4)cc(=O)c3c(O)c2O)[C@H](O)[C@@H](O)[C@@H]1O [Compound 17, baicalin]
52600

###

- MEASUREMENT_PROTOCOL: Multi-component pharmacokinetic study of GQD, GQD-GC and single herb extracts in rats (plasma, LC/MS/MS)
- Format: in vivo, Sprague-Dawley rats
- EXPERIMENTAL_CONTEXT: male, Sprague-Dawley, rat, in vivo, po, 3.54 g/kg
ATTRIBUTE_MEASURED: Cmax (ng/mL)
Answer in ng/mL, number only, no unit symbol.

>>> endpoint_result("COc1cc2c(cc1OC)-c1cc3ccc(OC)c(OC)c3c[n+]1CC2")
5.96
>>> endpoint_result("O=c1cc(-c2ccccc2)oc2cc(O)cc(O)c12")
4.1
>>> endpoint_result("COc1c(O)cc2oc(-c3ccccc3)cc(=O)c2c1O")
43.6

Please supply the value of reported Cmax for the item c1c2c(cc3c1OCO3)-c1cc3ccc4c(c3c[n+]1CC2)OCO4
5.33
